- System: Mycobacterium tuberculosis
- experiment-notes: Antitubercular activity against Mycobacterium tuberculosis H37Rv by NCCLS agar dilution method
- Format: functional

molecule | MIC
C=CCN(CC=C)C(=S)NN=C(c1ccccc1)c1ccccc1 | 9.33 µM
NNC(=O)c1ccncc1 [ISONIAZID] | 0.66 µM
C=CCN(CC=C)C(=S)N/N=C(/C)c1ccccc1O | 21.6 µM

---

- experiment-notes: Selectivity index, ratio of CC50 for african green monkey Vero cells to MIC for Mycobacterium tuberculosis H37Rv
- Format: toxicity, cell-based
- test-parameters: read-out: Selectivity Index

compound-string | selectivity ratio
O=[N+]([O-])c1ccc(/C=N\NC(=S)N(Cc2ccccc2)Cc2ccccc2)o1 | > 316

---

- System: Mycobacterium tuberculosis
- experiment-notes: Antitubercular activity against Mycobacterium tuberculosis H37Rv by NCCLS agar dilution method
- Assay type: functional
Recorded MIC by entry

compound | target-system | MIC (µM)
C=CCN(CC=C)C(=S)N/N=C(/C)c1ccc(N)cc1 | Mycobacterium tuberculosis | 43.3
C/C(=N/NC(=S)N(Cc1ccccc1)Cc1ccccc1)c1ccc(O)cc1 | Mycobacterium tuberculosis | 16.1
S=C(NN=C(c1ccccc1)c1ccccc1)N(Cc1ccccc1)Cc1ccccc1 | Mycobacterium tuberculosis | 3.58
CC[C@@H](CO)NCCN[C@@H](CC)CO [ETHAMBUTOL] | Mycobacterium tuberculosis | 4.71
C=CCN(CC=C)C(=S)N/N=C\c1ccccc1[N+](=O)[O-] | Mycobacterium tuberculosis | 5.12
CO[C@H]1/C=C/O[C@@]2(C)Oc3c(C)c(O)c4c(O)c(c(/C=N/N5CCN(C)CC5)c(O)c4c3C2=O)NC(=O)/C(C)=C\C=C\[C@H](C)[C@H](O)[C@@H](C)[C@@H](O)[C@@H](C)[C@H](OC(C)=O)[C@@H]1C [RIFAMPIN] | Mycobacterium tuberculosis | 0.23
C=CCN(CC=C)C(=S)N/N=C(/C)CC | Mycobacterium tuberculosis | 111
C=CCN(CC=C)C(=S)N/N=C(/C)c1ccc(F)cc1 | Mycobacterium tuberculosis | 10.7
C=CCN(CC=C)C(=S)N/N=C\c1ccccc1O | Mycobacterium tuberculosis | 45.4

---

- Test system: Mycobacterium tuberculosis
- experiment-notes: Antitubercular activity against Mycobacterium tuberculosis H37Rv by NCCLS agar dilution method
- Format: functional
assay-endpoint: MIC (µM)

molecule | target-system | assay-value
O=[N+]([O-])c1ccc(/C=N\NC(=S)N(Cc2ccccc2)Cc2ccccc2)o1 | Mycobacterium tuberculosis | 0.5
CC/C(C)=N\NC(=S)N(Cc1ccccc1)Cc1ccccc1 | Mycobacterium tuberculosis | 76.8
C/C(=N/NC(=S)N(Cc1ccccc1)Cc1ccccc1)c1ccccc1O | Mycobacterium tuberculosis | 8.03
Cc1ccccc1/C=N\NC(=S)N(Cc1ccccc1)Cc1ccccc1 | Mycobacterium tuberculosis | 8.38
C=CCN(CC=C)C(=S)N/N=C\c1ccc([N+](=O)[O-])o1 | Mycobacterium tuberculosis | 2.65
C=CCN(CC=C)C(=S)N/N=C\c1ccccc1C | Mycobacterium tuberculosis | 22.9
C/C(=N/NC(=S)N(Cc1ccccc1)Cc1ccccc1)c1ccc(N)cc1 | Mycobacterium tuberculosis | 16.1
O=[N+]([O-])c1ccccc1/C=N\NC(=S)N(Cc1ccccc1)Cc1ccccc1 | Mycobacterium tuberculosis | 3.85
Oc1ccccc1/C=N\NC(=S)N(Cc1ccccc1)Cc1ccccc1 | Mycobacterium tuberculosis | 8.33
C=CCN(CC=C)C(=S)N/N=C\c1ccccc1 | Mycobacterium tuberculosis | 48.2
CC1COc2c(N3CCN(C)CC3)c(F)cc3c(=O)c(C(=O)O)cn1c23 (configuration not stated) | Mycobacterium tuberculosis | 2.13
C/C(=N/NC(=S)N(Cc1ccccc1)Cc1ccccc1)c1ccc(F)cc1 | Mycobacterium tuberculosis | 7.99
C=CCN(CC=C)C(=S)N/N=C(/C)c1ccc(O)cc1 | Mycobacterium tuberculosis | 21.6
O=[N+]([O-])c1ccc(/C=N\NC(=S)N(Cc2ccccc2)Cc2ccccc2)cc1 | Mycobacterium tuberculosis | 0.98
C=CCN(CC=C)C(=S)N/N=C\c1ccc([N+](=O)[O-])cc1 | Mycobacterium tuberculosis | 2.56
C=CCN(CC=C)C(=S)N/N=C\c1ccc(Cl)cc1 | Mycobacterium tuberculosis | 5.3
C=CCN(CC=C)C(=S)N/N=C(/C)c1ccccc1 | Mycobacterium tuberculosis | 22.9
C/C(=N/NC(=S)N(Cc1ccccc1)Cc1ccccc1)c1ccccc1 | Mycobacterium tuberculosis | 16.7
C=CCN(CC=C)C(=S)N/N=C(/C)c1ccc([N+](=O)[O-])cc1 | Mycobacterium tuberculosis | 9.83
C/C(=N/NC(=S)N(Cc1ccccc1)Cc1ccccc1)c1ccc([N+](=O)[O-])cc1 | Mycobacterium tuberculosis | 3.72
S=C(N/N=C\c1ccccc1)N(Cc1ccccc1)Cc1ccccc1 | Mycobacterium tuberculosis | 17.4
S=C(N/N=C\c1ccc(Cl)cc1)N(Cc1ccccc1)Cc1ccccc1 | Mycobacterium tuberculosis | 1.98
